Ref: PubChem BioAssay

experiment: HUVEC growth inhibition – cell-based, human, primary screen (AID 575); conditions: HUVEC proliferation, CellTiter-Glo luminescence, 72 h; at 10 µM; active compounds read low;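 note: 100% = median of untreated cell wells with 0.1% DMSO on each plate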
readout-kind: viability (%)
Reply numerically in %, unit not repeated.

Quick note, viability for COc1cc(C(O)c2nc3ccccc3n2C)cc(OC)c1OC (configuration not stated) landed at 99.8

Quick note, viability for CCN(CC)C(=O)C1CCCN(c2ncnc3c2cnn3-c2ccc(Cl)cc2)C1 (configuration not stated) landed at 49.2

Quick note, viability for CCc1ccc(N2CC(C(=O)OCC(=O)NC3CCS(=O)(=O)C3)CC2=O)cc1 (configuration not stated) landed at 98.6

Quick note, viability for `COc1ccc(-c2nc3c(c(SCC(=O)N4CCOCC4)n2)COC(C)(C)C3)cc1` landed at 85.5

Quick note, viability for `Cc1nc2ccc(C(=O)c3ccccc3)cc2[nH]1` landed at 110

Quick note, viability for `Cc1cc(C)cc(NC(=O)CSc2nnc(Cc3cccn3C)n2-c2ccc(F)cc2)c1` landed at 63.1

Quick note, viability for O=C(O)C1CCCN(S(=O)(=O)c2ccc(Cl)s2)C1 (configuration not stated) landed at 102

Quick note, viability for CC1(C)CC(=O)C2=C(C1)NC(=O)CC2c1ccc(N(CCC#N)CCC#N)cc1 (configuration not stated) landed at 101

Quick note, viability for CC(c1ccco1)N(C(=O)COc1ccc(Cl)cc1Cl)c1ccccn1 (configuration not stated) landed at 71.6

Quick note, viability for `COC(=O)C1CCN(C(=O)CSc2nnc(-c3ccncc3)o2)CC1` landed at 101

Quick note, viability for `Cc1ccc(S(=O)(=O)NCCOC(=O)Nc2sc(=S)n(C)c2C)cc1` landed at 90

Quick note, viability for O=C(NCCOC(=O)C1COc2ccccc2O1)C1COc2ccccc2O1 (configuration not stated) landed at 88.5

Quick note, viability for Cc1nc2ccccn2c1/C(O)=C1\C(=O)C(=O)N(CCCN(C)C)C1c1ccc(F)cc1 (configuration not stated) landed at 94.4

Quick note, viability for `CC(=O)c1ccc(NC(=O)C2CCN(S(=O)(=O)c3cccc4cccnc34)CC2)cc1` landed at 100

Quick note, viability for CC(=O)NC(C)c1nc2ccccc2n1C(C)C (configuration not stated) landed at 88.1

Quick note, viability for `CCOc1ccc2nc(Nc3nc4c(c(=O)[nH]3)CCC4)nc(C)c2c1` landed at 98.4

Quick note, viability for `O=C(Nc1ccc2snnc2c1)N1CCN(c2ccccc2)CC1` landed at 75.4
